Target: T1, human TROP2-his protein (human, UniProt P09758 27-274)
T1 construct: Biotin-labelled in the ELISAs, unlabelled analyte in Biacore; also called biotin-labeled human TROP2-his protein; biotin human Trop2-his
T1 sequence: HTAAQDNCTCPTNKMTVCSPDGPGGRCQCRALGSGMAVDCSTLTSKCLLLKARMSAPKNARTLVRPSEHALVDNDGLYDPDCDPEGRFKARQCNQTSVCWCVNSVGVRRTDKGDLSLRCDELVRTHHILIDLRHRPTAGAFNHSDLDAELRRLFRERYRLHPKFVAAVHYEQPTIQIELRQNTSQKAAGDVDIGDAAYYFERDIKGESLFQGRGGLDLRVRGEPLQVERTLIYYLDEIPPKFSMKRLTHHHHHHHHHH
Assay: SPR Biacore T200, supernatant antibody captured on anti-human IgG CM5 chip, 40 nM human TROP2-his
Protocol: The goat anti-human IgG (GE healthcare, Cat #BR100839, Human Antibody Capture Kit) was covalently linked to a CM5 chip instead of goat anti-mouse IgG. […] The human TROP2-his protein at the concentration of 40 nM was used instead of serially diluted human TROP2-his protein.
Readings of pKd for the listed binders
In simple prose, pKd is minus the logarithm base ten of a concentration in moles per litre.

Examples from the recorded data:
{"binder": "huA1E4F7D4-V19 (antibody, human IgG1, kappa, V domains shown, Positions of the X residues are given in the claims; Tested as cell supernatant) VH: QVQLVQSGAEVKKPGASVKVSCKASGYSFTTHWIHWVRQAPGQGLEWIGTIFPSNAYAVYNQKFRDRVTMTADRSISTAYIELSRLRSDDTAVYYCARASYFDYWGQGTTVTVSS VL: EIVLTQSPATLSLSPGERATLSCRASQNIGTSIHWFQQKPGGSPRLLIYYASESISGIPSRFSGSGSGTDFTLTISSLEPEDFAVYYCQHSHSWPFTFGQGTKLEIKR", "reported.result": 9.58}
{"binder": "huA1E4F7D4-V14 (antibody, human IgG1, kappa, V domains shown, Positions of the X residues are given in the claims; Tested as cell supernatant) VH: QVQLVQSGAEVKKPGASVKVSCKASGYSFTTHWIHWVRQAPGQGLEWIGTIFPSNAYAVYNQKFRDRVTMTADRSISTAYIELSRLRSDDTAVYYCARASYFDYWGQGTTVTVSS VL: EIVLTQSPATLSLSPGERATLSCRASQNIGTSIHWFQQKPGGAPRLLIKYASESISGIPSRFSGSGSGTDFTLTISSLEPEDFAVYYCQHSHSWPFTFGQGTKLEIKR", "reported.result": 9.63}

Consider the record given below.
### Prompt pKd lookup needed for huA1E4F7D4-V18 (antibody, human IgG1, kappa, V domains shown, Positions of the X residues are given in the claims; Tested as cell supernatant) VH: QVQLVQSGAEVKKPGASVKVSCKASGYTFTTHWIHWVRQAPGQGLEWIGTIFPSNAYAVYNQKFRDRATMTADRSISTAYIELSRLRSDDTAVYYCARASYFDYWGQGTTVTVSS VL: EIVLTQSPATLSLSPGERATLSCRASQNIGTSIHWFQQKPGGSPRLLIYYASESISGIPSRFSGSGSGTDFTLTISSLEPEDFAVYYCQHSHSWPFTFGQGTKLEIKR , thanks.
### Response 9.64
